# assay.system: T1, CHC 1–574 L503A/Y504A (UniProt Q00610 1-574, L503A | Y504A)
# T1 construct: source: expressed and purified as the WT protein (modified pGEX vector; GST cleaved with TEV)
# T1 sequence (looked up): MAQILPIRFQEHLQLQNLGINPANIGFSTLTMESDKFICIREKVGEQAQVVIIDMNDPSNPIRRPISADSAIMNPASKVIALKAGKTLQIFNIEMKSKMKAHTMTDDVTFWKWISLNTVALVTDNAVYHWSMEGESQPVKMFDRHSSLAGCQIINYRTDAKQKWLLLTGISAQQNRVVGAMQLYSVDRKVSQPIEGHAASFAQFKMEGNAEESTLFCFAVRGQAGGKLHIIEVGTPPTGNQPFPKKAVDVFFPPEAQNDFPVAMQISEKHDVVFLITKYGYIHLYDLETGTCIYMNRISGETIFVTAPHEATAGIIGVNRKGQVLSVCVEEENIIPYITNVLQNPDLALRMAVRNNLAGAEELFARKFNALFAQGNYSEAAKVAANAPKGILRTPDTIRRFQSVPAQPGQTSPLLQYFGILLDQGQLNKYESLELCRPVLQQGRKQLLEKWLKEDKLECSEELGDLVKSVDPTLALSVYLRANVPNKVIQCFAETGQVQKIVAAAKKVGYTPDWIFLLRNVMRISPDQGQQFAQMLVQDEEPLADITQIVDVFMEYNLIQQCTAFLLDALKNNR
# assay.protocol: fluorescence polarisation; CHC proteins serially diluted in 20 mM HEPES–NaOH pH 7.5, 200 mM NaCl, 5 mM DTT; 50 nM FAM‐labelled TACC3 peptide; 30 min at room temperature; read at 25°C
# cond: both partners purified
pKd: −log10 of the molar value. Non-standard residues stand in square brackets, D forms with d. No end group written: not given here. pS = N[C@@H](COP(=O)(O)O)C(=O)O; FAM = fluorescein label
quantity: pKd

binder	result
{FAM}-FKESALRKQ[pS]LYLKFDPLLRDS (peptide, UniProt Q9Y6A5 549-570, looked up, TACC3, human, aa549–570 (TACC3^CID); also called pTACC3^CID; FAM‐labelled pTACC3^CID; source: FAM‐labelled peptide (FAM‐TACC3 peptides: PPR, Cambridge; Almac, Craigavon)) [FAM‐TACC3 549–570 phosphorylated on S558 (FAM‐phospho‐TACC3^CID)]	< 3.52
